# Test system: HCT-15 colon
# ASSAY_NOTES: NCI-60 one-dose screen, 48 h (100 = growth as untreated, 0 = no growth, -100 = all killed)
# REPORTED_CONDITIONS: 10 µM unless noted
Compounds without any hit were thinned out: in the full panel of roughly 83,000, 20% have a hit.
// reported growth per item
Report only the number, with the unit % understood.

Known growth results, listed for orientation:
COMPOUND | UNIT_SPEC | growth
COc1ccc(C(=O)c2cc(OC)c(OC)c(OC)c2OC)cc1O | % | 30.2
Cc1c(C(N)=O)sc2c1c(=O)n(Cc1ccccc1)c1nnc(Nc3ccccc3)n21 | % | 96.1
CCN1CCN(CC(=O)N2c3cccc4cccc(c34)N(C(=O)CN3CCN(CC)CC3)C2c2cn(-c3ccccc3)nc2-c2cccc([N+](=O)[O-])c2)CC1 | % | -45.5
CCOC(=O)C1CCNC(=O)C1=O (stereo unspecified) | % | 111
COc1cc(-c2nn(-c3cccc(NC(=O)Nc4ccc(Cl)c(C(F)(F)F)c4)c3)cc2-c2ccncc2)ccc1Cl | % | 9.91

# ---- query compound ----
# growth (compound: N=C(N)c1ccc(-c2ccc(-c3ccc4ccccc4c3)s2)cc1 ) is 3.41

====

# Test system: KM12 colon
# ASSAY_NOTES: NCI-60 one-dose screen, 48 h (100 = growth as untreated, 0 = no growth, -100 = all killed)
# REPORTED_CONDITIONS: 10 µM unless noted
About 83,000 compounds went through this panel and 20% of them were active in at least one assay; those are over-represented in the sample as a whole.
Items are presented alongside their recorded growth.
Field: numeric (%). Do not append units.

Use the examples below as a reference point.
COMPOUND | TARGET_SYSTEM | growth [%]
O=C(O)c1nc(-c2ccccc2)oc1N1CCOCC1 | KM12 colon | 88.9
Cc1c(C(=N)C(C#N)C#N)c(=N)oc2c1ccc1ccccc12 | KM12 colon | 101
Cc1ccc(N2CCN(C(C)C(N)=O)CC2)cc1 (stereo unspecified) | KM12 colon | 112
COc1ccc(S(=O)(=O)Nc2cc(/C=C\c3cc(OC)c(OC)c(OC)c3)cc(OC)c2OC)cc1 | KM12 colon | 10
Cc1nc2cncc(C#Cc3cncc(C(=O)Nc4ccc(CN5CCN(C)CC5)c(C(F)(F)F)c4)c3)c2nc1C | KM12 colon | 3.08

// field: growth; key: CCC1=CCC[C@@]2(C)CCC[C@@]3(C)CCCC(C)(C)[C@]1([O-])[O+]32 ; value = 110

====

# Test system: UACC-257 melanoma
# ASSAY_NOTES: NCI-60 one-dose screen, 48 h
# REPORTED_CONDITIONS: 10 µM unless noted
The panel holds about 83,000 compounds, 20% with a hit somewhere; the sample as a whole holds those more often. Activity calls are given as the source filed them. The calls were made as follows: active = growth percent below 10; inactive = the rest.
Outcome (select one): active, inactive

# example entries with known answers
COMPOUND | LABEL
C=C1CCC2C3(C)COC(c4ccc(N(C)C)cc4)OC3CCC2(C)C1C/C=C1/C(=O)OCC1O (centres undefined) | inactive
C=C[C@@H]1C[C@H](O)Cc2ccccc2N1 | inactive
CCN(CC)c1ccc(C(=N)c2ccc(N(CC)CC)cc2)cc1 | active

Turning to the following compound.
Enquiry: Could you kindly confirm the outcome this assay logged for Cc1cc(C)n(-c2nnc3n2N=C(c2ccc(-c4ccccc4)cc2)CS3)n1 ?
Return: inactive
